Recorded values, source patent US20220289788A1.

The reader will find reported solubility at 24 h values listed item by item below.
Test: physchem
Conditions: pH 4.5 buffer solution, 25 °C, pH 4.5, aqueous buffer, thermodynamic from solid
Structures can show the parent of a compound that is named as a salt.
Give the value in µg/mL but do not write µg/mL after it.

| MOLECULE | ASSAY_ENDPOINT | UNITS_TEXT | RESULT |
| --- | --- | --- | --- |
| CC(=O)[C@H]1CC[C@H]2[C@@H]3CC[C@H]4C[C@H](OC(=O)CNC(=O)[C@H](C)N)CC[C@]4(C)[C@H]3CC[C@]12C [Compound 23 hydrochloride] | solubility at 24 h | µg/mL | 970 |
| CC(=O)[C@H]1CC[C@H]2[C@@H]3CC[C@H]4C[C@H](OC(=O)[C@H](C)NC(=O)CN)CC[C@]4(C)[C@H]3CC[C@]12C [Compound 12 hydrochloride] | solubility at 24 h | µg/mL | 1910 |

# evaluate next
Looking up CC(=O)[C@H]1CC[C@H]2[C@@H]3CC[C@H]4C[C@H](OC(=O)[C@H](C)OC(=O)[C@@H](N)C(C)C)CC[C@]4(C)[C@H]3CC[C@]12C [Compound 13 hydrochloride] , I see its solubility at 24 h listed as 10

###

Assay: physchem
Conditions: water, 25 °C, thermodynamic from solid
Structures can show the parent of a compound that is named as a salt.
ASSAY_ENDPOINT: log10(solubility at 24 h) (log10 of the value in µg/mL)
Note: values are log10 of solubility at 24 h expressed in µg/mL.

Example entries and their recorded answers appear below.
| COMPOUND | log10(solubility at 24 h) |
| --- | --- |
| CC(=O)[C@H]1CC[C@H]2[C@@H]3CC[C@H]4C[C@H](OC(=O)CNC(=O)[C@H](C)N)CC[C@]4(C)[C@H]3CC[C@]12C [Compound 23 hydrochloride] | 2.81 |
| CC(=O)[C@H]1CC[C@H]2[C@@H]3CC[C@H]4C[C@H](OC(=O)[C@@H](NC(=O)C(C)N)C(C)C)CC[C@]4(C)[C@H]3CC[C@]12C (stereo partly shown) [Compound 6 hydrochloride] | 3.75 |

Kindly note the recorded log10(solubility at 24 h) for CC(=O)[C@H]1CC[C@H]2[C@@H]3CC[C@H]4C[C@H](OC(=O)[C@H](C)NC(=O)CN)CC[C@]4(C)[C@H]3CC[C@]12C [Compound 12 hydrochloride] , which is 3.42

Value of measured log10(solubility at 24 h) for the entry CC(=O)[C@H]1CC[C@H]2[C@@H]3CC[C@H]4CC(OC(=O)C(NC(=O)C(N)CC(C)C)C(C)C)CC[C@]4(C)[C@H]3CC[C@]12C (stereo partly shown) [Compound 7 hydrochloride] : 3.87

Data point: CC(=O)[C@H]1CC[C@H]2[C@@H]3CC[C@H]4C[C@H](OC(=O)[C@H](C)OC(=O)[C@@H](N)C(C)C)CC[C@]4(C)[C@H]3CC[C@]12C [Compound 13 hydrochloride] ; log10(solubility at 24 h) = 2.57

Lab book: log10(solubility at 24 h) of CC(=O)[C@H]1CCC2[C@@H]3CCC4CC(OC(=O)C(NC(=O)C(N)Cc5c[nH]c6ccccc56)C(C)C)CC[C@]4(C)C3CC[C@@]21C (stereo partly shown) [Compound 5 hydrochloride] noted as 1.85

The value of log10(solubility at 24 h) measured for the compound CC(=O)[C@H]1CC[C@H]2[C@@H]3CC[C@H]4C[C@H](OC(=O)CNC(=O)CN)CC[C@]4(C)[C@H]3CC[C@]12C [Compound 15 hydrochloride] turned out to be 3.05

Looking up CC(=O)[C@H]1CCC2[C@@H]3CCC4CC(OC(=O)C(NC(=O)C5CCCN5)C(C)C)CC[C@]4(C)C3CC[C@@]21C (stereo partly shown) [Compound 4 hydrochloride] , I see its log10(solubility at 24 h) listed as 2.28

###

Assay: Pharmacokinetic testing after single oral administration, allopregnanolone detected in plasma
Assay type: in vivo
Details: male SD rats, i.g. 20 mg/kg (as allopregnanolone)
Structures can show the parent of a compound that is named as a salt.
ASSAY_ENDPOINT: AUC0-last
Please state the number and follow it with the unit.

Consider CC(=O)[C@H]1CC[C@H]2[C@@H]3CC[C@H]4C[C@H](OC(=O)CNC(=O)CN)CC[C@]4(C)[C@H]3CC[C@]12C [Compound 15 hydrochloride] . Its measured AUC0-last is 166.3 ng′ hours/mL

Short answer for CC(=O)[C@H]1CC[C@H]2[C@@H]3CC[C@H]4C[C@H](O)CC[C@]4(C)[C@H]3CC[C@]12C [Allopregnanolone, allopregnanolone, reference compound] : AUC0-last was 24.9 ng′ hours/mL

Entry CC(=O)[C@H]1CC[C@H]2[C@@H]3CC[C@H]4C[C@H](OC(=O)CNC(=O)[C@@H](N)C(C)C)CC[C@]4(C)[C@H]3CC[C@]12C [Compound 14 hydrochloride] , AUC0-last reported as 150.2 ng′ hours/mL

For CC(=O)[C@H]1CCC2[C@@H]3CCC4CC(OC(=O)C(NC(=O)CN)C(C)C)CC[C@]4(C)C3CC[C@@]21C (stereo partly shown) [Compound 2 hydrochloride] the compound record lists AUC0-last as 196.0 ng′ hours/mL
